tested on: AAK1; settings: concentration: 1 μM,replicates: in singlicate; n = 1;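 also: KINOMEscan kinase panel screen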
Please go through the items and note down their %Inh.
Answers are plain numbers, in %.

Worked set:
COMPOUND: OCCn1cc(-c2cnc3nnn(Cc4ccc5ncccc5c4)c3n2)cn1
EXPERIMENTAL_VALUE: 0

COMPOUND: CS(=O)(=O)Nc1ccc(-c2ccnc3[nH]ccc23)cc1
EXPERIMENTAL_VALUE: 79

COMPOUND: Cc1ccc(C(=O)Nc2ccc(Oc3ccc4nc(NC(=O)C5CC5)cn4c3)c(F)c2)c(=O)n1-c1ccccc1
EXPERIMENTAL_VALUE: 0

COMPOUND: COc1cccc(CNC(=O)NC2CCN(c3ccnc(Nc4cc(OC)c(OC)c(OC)c4)n3)C2)c1 (centres unmarked)
EXPERIMENTAL_VALUE: 54

COMPOUND: C[C@@H]1CNc2c(sc3ccc4nc(-c5ccc(O)cc5)ccc4c23)C(=O)N1
EXPERIMENTAL_VALUE: 29

For each of the compounds below, note its %Inh.
1. O=C(Nc1cccc(Oc2ccc3nccn3n2)c1)Nc1cccc(C(F)(F)F)c1
2. COC(=O)c1cccc(NC(=O)NC2CCN(c3ccnc(Nc4cc(OC)c(OC)c(OC)c4)n3)C2)c1 (centres unmarked)
3. CSc1nccc(-c2c(-c3ccc(F)cc3)ncn2CCCN2CCOCC2)n1.Cl

Response line:
[0, 68, 0]
